Reference for the values: paper PMC8575775

Target: T1, hnRNP LL RRM2 (human, UniProt Q8WVV9 166-268)
T1 construct: hnRNP LL, human, RRM2 domain; The methods describe only the cloning of hnRNP L RRM2; all proteins were expressed in E. coli; source: E. coli BL21 (DE3), purified (Ni-NTA, size-exclusion chromatography)
T1 sequence: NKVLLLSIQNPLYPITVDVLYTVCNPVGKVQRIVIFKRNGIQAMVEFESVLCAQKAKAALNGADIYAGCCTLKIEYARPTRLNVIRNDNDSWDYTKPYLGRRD
Test: ITC; SETD2 peptides (about 600 µM, syringe) titrated into hnRNP L / hnRNP LL proteins (about 50 µM, cell); 20 °C; Microcal PEAQ-ITC; one-site binding model; mean of three independent experiments
Settings: both partners purified
measurementLabel: Kd
Please state the number and follow it with the unit.

# input Field request: Kd | item: YPPGYPMQAYVDPSNPNAGKVLLPTP (peptide, UniProt Q9BYW2 2167-2192, looked up, source: synthetic peptide) [SETD2 2167–2192 peptide]
# output 8.27 µM
